test: Drug excretion in human urine; assay type: ADME, tissue-based; details: read-out: Drug excretion
Can you tell me dose excreted for the items I'm about to list?

Recorded dose excreted of CCN1CCN(Cc2ccc(Nc3ncc(F)c(-c4cc(F)c5nc(C)n(C(C)C)c5c4)n3)nc2)CC1 [ABEMACICLIB] , please. 3%

GET /values?readout=dose excreted&item= CN(C)C(=O)c1cc2cnc(Nc3ccc(N4CCNCC4)cn3)nc2n1C1CCCC1 [RIBOCICLIB] 23%

====

test: Bioavailability in human; type: ADME, organism-based; details: in vivo
property measured: bioavailability (%)
Numeric answer only, unit % assumed.

Need bioavailability of CCN1CCN(Cc2ccc(Nc3ncc(F)c(-c4cc(F)c5nc(C)n(C(C)C)c5c4)n3)nc2)CC1 , thanks. 45

====

assay: Drug excretion in human feces; type: ADME, tissue-based; details: faeces, read-out: Drug excretion
property measured: dose excreted

If you can, please state the reported dose excreted value of CN(C)C(=O)c1cc2cnc(Nc3ccc(N4CCNCC4)cn3)nc2n1C1CCCC1 [RIBOCICLIB] . 69%

I'd like to know its dose excreted. The compound in question is CCN1CCN(Cc2ccc(Nc3ncc(F)c(-c4cc(F)c5nc(C)n(C(C)C)c5c4)n3)nc2)CC1 [ABEMACICLIB] 81%

====

assay: Protein binding in human plasma; format: ADME, cell-free; settings: read-out: PPB (converted)
property measured: fraction unbound

Which fraction unbound value belongs to CCN1CCN(Cc2ccc(Nc3ncc(F)c(-c4cc(F)c5nc(C)n(C(C)C)c5c4)n3)nc2)CC1 [ABEMACICLIB] ? 0.07

====

assay: Volume of distribution in human; type: ADME
For each of the compounds below, state its Vd.
Please state the figure in L; there is no need to write the unit.

Consider the compound CN(C)C(=O)c1cc2cnc(Nc3ccc(N4CCNCC4)cn3)nc2n1C1CCCC1 and give its measured Vd. 1090

Any idea what Vd was measured for CCN1CCN(Cc2ccc(Nc3ncc(F)c(-c4cc(F)c5nc(C)n(C(C)C)c5c4)n3)nc2)CC1 ? 690

Please look up its Vd: CC(=O)c1c(C)c2cnc(Nc3ccc(N4CCNCC4)cn3)nc2n(C2CCCC2)c1=O 2580

====

Could you please report measured Tmax for the items listed next?
assay: Time to reach peak level in human; assay type: ADME
Unit h implied. Number only.

Fill blank: measured Tmax of the compound CCN1CCN(Cc2ccc(Nc3ncc(F)c(-c4cc(F)c5nc(C)n(C(C)C)c5c4)n3)nc2)CC1 is ____. 8

Look at this compound and give its reported Tmax. CC(=O)c1c(C)c2cnc(Nc3ccc(N4CCNCC4)cn3)nc2n(C2CCCC2)c1=O 6

# lookup: Tmax of CN(C)C(=O)c1cc2cnc(Nc3ccc(N4CCNCC4)cn3)nc2n1C1CCCC1 1

====

assay: Elimination half life in human; format: ADME; details: read-out: beta t1/2 (converted)
property measured: half-life (min)
All answers are understood in min, so give the number only.

Recorded half-life of CN(C)C(=O)c1cc2cnc(Nc3ccc(N4CCNCC4)cn3)nc2n1C1CCCC1 , please. 1800

For the compound CC(=O)c1c(C)c2cnc(Nc3ccc(N4CCNCC4)cn3)nc2n(C2CCCC2)c1=O , what half-life is on record? 1740
